# protocolDescription: BET inhibitor-based combinations targeting novel dependencies in MECOM-rearranged (r) AML: AML-191 cell line (AID 2202236; note: nearly all actives have a fitted effect of over 35% in size)
# cond: AML-191 viability, CellTiter-Glo luminescence, 48 h; series mostly up to 46 µM
Results filed as inconclusive are left out. The source made the active and inactive calls. Calls come from the whole dose curve; as a rule, active = well fitted inhibition curve with a large enough effect; inconclusive = small, poorly fitted or top-dose-only effect; inactive = flat fitted curve, though single readings scatter.
# valid calls are active, inactive; nothing else

Given `CN(C)c1cccc(-c2c3c(=O)n(-c4ccccc4Cl)[nH]c3cc(=O)n2C)c1` , state the outcome it received in this test. inactive

# lookup: test call for `N[C@@H](Cc1c[nH]c2ccc(O)cc12)C(=O)O` inactive

Could you kindly confirm the outcome this assay logged for `O=C(NC1CCOCC1)c1ccc(-c2cc(-c3cn[nH]c3-c3ccccn3)ccn2)cc1` ? inactive

Check the results log: what was the call for `O=C1NC(=O)/C(=C/c2ccc3nccnc3c2)S1` ? inactive

GET /call?item= `CCOc1cc2ncc(C#N)c(Nc3ccc(OCc4ccccn4)c(Cl)c3)c2cc1NC(=O)/C=C/CN(C)C` returns the recorded outcome of this test. active

###

# protocolDescription: BET inhibitor-based combinations targeting novel dependencies in MECOM-rearranged (r) AML: SET-2 cell line (AID 2202231);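 note: plate controls were DMSO treated cells for no effect and wells without cells for full effect; nearly all actives have a fitted effect of over 35% in size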
# cond: SET-2 AML cells viability, CellTiter-Glo luminescence, 48 h; active compounds read low, concentration not given here
# Protocol: Ecotropic viral insertion site 1 (EVI1) is located on chromosome 3q26.2 as part of the MECOM (MDS and EVI1 complex) locus. […] A collection of 2480 mechanistically annotated dugs (MIPE v5.0) was used to screen four 3q26.2 rearranged AML cell lines and three non-3q26.2 rearranged AML cell lines. […] Cell viability was determined by luminescence based, Cell Titer Glo assay (Promega). […] Luminescence readings were taken using a Viewlux (PerkinElmer) with a 2 s exposure time per plate. […]
Records with an inconclusive call do not appear.
Please respond with reported viability for every item in the list.
Numeric only. Scale: %

Which viability value is on record for `NC(=O)c1ccc(N(C(N)=O)c2c(F)cccc2F)nc1-c1ccc(F)cc1F` ? 106

Which viability value belongs to `COc1cc2c(NC3CCN(CC4CCCCC4)CC3)nc(N3CCCN(C(C)C)CC3)nc2cc1OCCCN1CCCCC1` ? 104

I am curious: what viability value has been reported for `CC(C)N(CCCNC(=O)Nc1ccc(C(C)(C)C)cc1)C[C@H]1O[C@@H](n2ccc3c(N)ncnc32)[C@H](O)[C@@H]1O` ? 93.2

Any idea what its viability is? The compound is Cc1ccccc1C(=O)Nc1ccc(C(=O)N2CCCC(O)c3cc(Cl)ccc32)c(C)c1 (stereo not given) 88.6

Need viability of CCC1(C)CC(=O)NC1=O (stereo not given) , thanks. 115

Suppose we examine the compound COc1ccccc1OCC(O)CN1CCN(CC(=O)Nc2c(C)cccc2C)CC1 (stereo not given) ; what viability value has been reported? 110

Entry `C[C@@]1(c2cc(-c3cncnc3)c(F)cc2F)CCSC(N)=N1` has what viability? 111

Return reported viability; argument: `Cc1cc(C)c(/C=C2\C(=O)Nc3ccccc32)[nH]1` 96.4

Look at this compound and give its reported viability. `COc1cc(OC)c(C(=O)CCCN2CCCC2)c(OC)c1` 98

Which measured viability value corresponds to `Cc1ccc2c(c1)C(=O)[C@]1(O)CCN(c3ccccc3)C1=N2` ? 110

###

# protocolDescription: BET inhibitor-based combinations targeting novel dependencies in MECOM-rearranged (r) AML: SET-2 cell line (AID 2202231);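 note: plate controls were DMSO treated cells for no effect and wells without cells for full effect; nearly all actives have a fitted effect of over 35% in size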
# cond: SET-2 AML cells viability, CellTiter-Glo luminescence, 48 h; active compounds read low, concentration not given here
Results filed as inconclusive are left out.
reportedEndpoint: viability (%)
Report the value in % with no unit label.

Which viability value is on record for `O=C1c2cccc(O)c2C(=O)c2c(O)cc(CO)cc21` ? 116

Request the reported viability associated with `CNc1nc(Nc2ccc(C(=O)N3CCOCC3)cc2OC)ncc1Cl` 93.5

Would you kindly share the measured viability for `CC(C)NC(=O)N1CC[C@H](N=C2Nc3cc(F)ccc3N(CC(F)F)c3ccc(Cl)cc32)C1` ? 109

So what does the record say about viability for `CC(C)(C)COc1ccc(-n2cc(C(=O)O)cn2)cc1C#N` ? 95.2

Form field: reported viability of `Cc1cc(=O)oc2cc(O)ccc12` 111

Look up viability for this compound: CC1=C(C)C(=O)C(C(CCCCCC(=O)O)c2ccccc2)=C(C)C1=O (stereo not given) 93.3

Could you share which viability value was measured for `Cc1ccc(-n2nc(C(C)(C)C)cc2NC(=O)Nc2ccc(OCCN3CCOCC3)c3ccccc23)cc1` ? 102

Returns the measured viability for the input compound. Input: `NC(=O)c1cnc(-c2ccc(C3(N)CCC3)cc2)c(-c2ccccc2)c1` 104

Fill blank: measured viability of the compound `NC(=O)c1ccc(-c2nc(-c3ccc4c(c3)OCO4)c(-c3ccccn3)[nH]2)cc1` is ____. 112

Request the reported viability associated with `CN1CCN(c2ccc(-c3cccc(CN4CCOCC4)c3)cc2NC(=O)c2c[nH]c(=O)cc2C(F)(F)F)CC1` 120

Where these numbers come from: PubChem BioAssay (NCATS)
